- testSystem: Estrogen receptor beta (Homo sapiens) (UniProt Q92731)
- Sequence (Q92731 whole entry): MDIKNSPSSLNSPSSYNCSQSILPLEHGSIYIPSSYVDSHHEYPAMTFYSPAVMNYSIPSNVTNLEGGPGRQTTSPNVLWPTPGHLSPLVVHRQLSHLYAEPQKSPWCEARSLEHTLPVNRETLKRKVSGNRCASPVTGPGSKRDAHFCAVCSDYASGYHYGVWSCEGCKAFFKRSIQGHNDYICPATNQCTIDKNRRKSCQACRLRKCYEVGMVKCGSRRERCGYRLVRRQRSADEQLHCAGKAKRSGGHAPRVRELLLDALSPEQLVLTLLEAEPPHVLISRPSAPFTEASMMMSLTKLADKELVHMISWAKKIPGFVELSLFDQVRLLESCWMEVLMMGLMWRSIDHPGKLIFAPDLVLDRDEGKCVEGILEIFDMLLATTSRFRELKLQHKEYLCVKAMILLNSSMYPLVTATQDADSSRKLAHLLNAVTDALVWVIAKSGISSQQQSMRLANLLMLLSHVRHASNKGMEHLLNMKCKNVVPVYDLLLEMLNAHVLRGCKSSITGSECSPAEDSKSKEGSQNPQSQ
- protocolDescription: Displacement of ES2 from recombinant human ER-beta at 100 uM incubated for 2 hrs by fluorescence based assay relative to control
testReadout: inhibition (%)

moleculeSmiles	testReadout	recordedMeasurement
Oc1ccc(C(=C(Cn2ccnc2)c2cccc(O)c2)c2ccc(O)cc2)cc1	inhibition	29
Nc1ccc(C(Cn2cncn2)=C(c2ccc(O)cc2)c2ccc(O)cc2)cc1	inhibition	2
Oc1ccc(C(=C(Cn2cncn2)c2ccc(O)c(F)c2)c2ccc(O)cc2)cc1	inhibition	0
N#CCC(=C(c1ccc(O)cc1)c1ccc(O)cc1)c1ccc(O)c(F)c1	inhibition	0

###

- testSystem: Estrogen receptor (Homo sapiens) (UniProt P03372)
- Sequence (P03372 whole entry): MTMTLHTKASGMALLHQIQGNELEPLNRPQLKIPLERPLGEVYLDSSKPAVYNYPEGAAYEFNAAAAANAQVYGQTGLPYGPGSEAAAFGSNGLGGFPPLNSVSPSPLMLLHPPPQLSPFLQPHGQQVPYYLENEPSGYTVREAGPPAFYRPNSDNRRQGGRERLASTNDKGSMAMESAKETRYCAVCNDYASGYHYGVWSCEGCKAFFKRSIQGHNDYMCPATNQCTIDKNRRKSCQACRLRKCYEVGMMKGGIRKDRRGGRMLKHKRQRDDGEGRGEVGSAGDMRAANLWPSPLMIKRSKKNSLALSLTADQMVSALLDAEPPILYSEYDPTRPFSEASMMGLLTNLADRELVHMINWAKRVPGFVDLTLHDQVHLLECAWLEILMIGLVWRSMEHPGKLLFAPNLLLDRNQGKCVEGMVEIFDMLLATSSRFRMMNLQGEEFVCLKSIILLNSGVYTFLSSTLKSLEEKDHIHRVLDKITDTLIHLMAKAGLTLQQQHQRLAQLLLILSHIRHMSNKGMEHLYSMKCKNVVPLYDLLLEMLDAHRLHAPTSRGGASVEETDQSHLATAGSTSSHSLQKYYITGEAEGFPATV
- protocolDescription: Displacement of ES2 from recombinant human ER-alpha at 100 uM incubated for 2 hrs by fluorescence based assay relative to control

moleculeSmiles	inhibition / %
Nc1ccc(C(Cn2cnnc2)=C(c2ccc(O)cc2)c2ccc(O)cc2)cc1	13
Oc1ccc(C(=C(Cn2cncn2)c2ccc(O)c(F)c2)c2ccc(O)cc2)cc1	2
Oc1ccc(C(=C(Cn2cnnc2)c2ccc(O)c(F)c2)c2ccc(O)cc2)cc1	0
N#CCC(=C(c1ccc(O)cc1)c1ccc(O)cc1)c1ccc(O)c(F)c1	0
Oc1ccc(C(=C(Cn2cncn2)c2ccccc2)c2ccc(O)cc2)cc1	12
N#CCC(=C(c1ccc(O)cc1)c1ccc(O)cc1)c1ccc(N)cc1	0
Oc1ccc(C(=C(Cn2ccnc2)c2cccc(O)c2)c2ccc(O)cc2)cc1	0
N#CCC(=C(c1ccc(O)cc1)c1ccc(O)cc1)c1ccc(O)cc1	0
Nc1ccc(C(Cn2cncn2)=C(c2ccc(O)cc2)c2ccc(O)cc2)cc1	0

###

Measured inhibition by item
- testSystem: Estrogen receptor beta (Homo sapiens) (UniProt Q92731)
- protocolDescription: Displacement of ES2 from recombinant human ER-beta at 100 uM incubated for 2 hrs by fluorescence based assay relative to control
- studyConditions: filed as modulator

moleculeSmiles	inhibition
Oc1ccc(C(Cn2ccnc2)=C(c2ccc(O)cc2)c2ccc(O)cc2)cc1	> 90%
Oc1ccc(C(=C(Cn2ccnc2)c2ccccc2)c2ccc(O)cc2)cc1	> 90%
Nc1cccc(C(Cn2ccnc2)=C(c2ccc(O)cc2)c2ccc(O)cc2)c1	71%
Oc1ccc(C(Cn2cncn2)=C(c2ccc(O)cc2)c2ccc(O)cc2)cc1	40%
Oc1ccc(C(=C(Cn2ccnc2)c2ccc(O)c(F)c2)c2ccc(O)cc2)cc1	> 90%
Nc1ccc(C(Cn2ccnc2)=C(c2ccc(O)cc2)c2ccc(O)cc2)cc1	> 90%
N#CCC(=C(c1ccc(O)cc1)c1ccc(O)cc1)c1ccccc1	49%
Oc1ccc(C(Cn2cnnc2)=C(c2ccc(O)cc2)c2ccc(O)cc2)cc1	> 90%
CCC(=C(c1ccc(O)cc1)c1ccc(O)cc1)c1ccccc1	> 90%

###

- testSystem: Estrogen receptor beta (Homo sapiens) (UniProt Q92731)
- protocolDescription: Displacement of ES2 from recombinant human ER-beta at 100 uM incubated for 2 hrs by fluorescence based assay relative to control
Measured inhibition by item
testReadout: inhibition (%)

moleculeSmiles	testReadout	recordedMeasurement
Nc1ccc(C(Cn2cnnc2)=C(c2ccc(O)cc2)c2ccc(O)cc2)cc1	inhibition	36
N#CCC(=C(c1ccc(O)cc1)c1ccc(O)cc1)c1ccc(N)cc1	inhibition	0
Oc1ccc(C(=C(Cn2cncn2)c2ccccc2)c2ccc(O)cc2)cc1	inhibition	33
N#CCC(=C(c1ccc(O)cc1)c1ccc(O)cc1)c1ccc(O)cc1	inhibition	3
Oc1ccc(C(=C(Cn2cnnc2)c2ccc(O)c(F)c2)c2ccc(O)cc2)cc1	inhibition	0
